Reference source: patent US11214803B2

Experiment: Cynomolgus monkey tolerability, kidney and liver function markers (Example 34)
Details: cynomolgus monkeys, 35 mg/kg subcutaneously, day 44
# BUN per record follows
Kindly answer with a numeric value in mg/dL, unit omitted.

Quote BUN reported for 958499 (ATTAGAGTATGTGGCA; 3-10-3 cEt gapmer, further chemistry not given here) [compound 958499] please.
24

Indicate its recorded BUN; the substance in question is 1198439 (AGTGTATGTCAGAAGA; sugar, 5-methylcytosine, phosphorothioate modifications, further chemistry not given here) [compound 1198439]
24

Specify reported BUN for the substance shown: 1198728 (TATTAGAGTATGTGGC; modified gapmer, further chemistry not given here) [compound 1198728]
26

Turning now to a further substance:
Assign BUN to the following record: 1198623 (CTAAGTAAGGTTTCCC; modified gapmer, further chemistry not given here) [compound 1198623]
26

* * *

Assay: Tolerability in Sprague-Dawley rats, plasma chemistry markers (Example 22)
Format: in vivo
Settings: male Sprague-Dawley rats, 50 mg/kg s.c. weekly for 6 weeks (7 doses), 48 hours after last dose
We begin with a simple list: items and their reported AST.
Give the number; U/L is assumed, so skip it.

Here is how some substances turned out for AST.
Quote AST reported for 1198872 (TGTATGTCAGAAGAGT; chemically modified gapmer, further chemistry not given here) [compound 1198872] please.
134

Answer with the recorded AST of 1198605 (GTAATATTGCAATCTG; modified gapmer, further chemistry not given here) [compound 1198605] only.
76

State, in one line, measured AST of 1198728 (TATTAGAGTATGTGGC; modified gapmer, further chemistry not given here) [compound 1198728]
71

Supply measured AST of 1197270 (TTAAAGTGTATGTCAG; cEt gapmer with 2'-OMe nucleoside, phosphorothioate, further chemistry not given here) [compound 1197270] in your reply.
120

Hello, please tell me recorded AST for this one: 1198623 (CTAAGTAAGGTTTCCC; modified gapmer, further chemistry not given here) [compound 1198623]
87

Would you kindly look at the next entry?
// Input: 1198831 (CACTTTTACATTAGGA; chemically modified gapmer, further chemistry not given here) [compound 1198831] . Output its AST only.
69

* * *

System: Yap1 mRNA
Assay: Antisense inhibition of human Yap1 in SNU-449 cells by modified oligonucleotides, single dose (Example 5, RTS36584)
Assay type: cell-based
Conditions: Table 39; SNU-449 cells, 10,000 cells per well, free uptake, 2,000 nM oligonucleotide, approx. 48 hours; RTS36584; normalized to RIBOGREEN; Yap1 mRNA relative to untreated control
Strand notation (5' to 3'): a small letter for the sugar, then the base; units joined by * are phosphorothioate-linked, units joined directly phosphodiester-linked; [ ] holds rarer units or linkages, { } end groups; capitals alone tell only the bases. e = 2'-O-(2-methoxyethyl) (MOE); k = constrained ethyl (cEt); [5mC] = 5-methylcytosine; d = 2'-deoxy (DNA)
Measure: YAP1 (% UTC)
A number alone suffices; assume % UTC.

These solved cases illustrate the format of a correct answer.
Name the recorded YAP1 (% UTC) of the item 1198434 (kT*dG*dT*dA*dA*dT*dA*dT*dT*dG*d[5mC]*kA*eA*kT*e[5mC]*kT) [Compound 1198434] in your answer.
78

Name the recorded YAP1 (% UTC) of the item 1198389 (kG*dG*dT*dA*dT*dA*dA*d[5mC]*dT*dG*dG*kG*e[5mC]*kA*eA*kA; antisense) [Compound 1198389] in your answer.
28

Okay, next one:
Determine its reported YAP1 (% UTC): 1198451 (k[5mC]*dT*dA*dA*dG*dT*dA*dA*dG*dG*dT*kT*eT*k[5mC]*e[5mC]*k[5mC]; antisense) [Compound 1198451]
48

* * *

Assay: Tolerability in Sprague-Dawley rats, plasma chemistry markers (Example 21)
Type: in vivo
Details: male Sprague-Dawley rats, 50 mg/kg s.c. weekly for 6 weeks (7 doses), 48 hours after last dose
Strand notation (5' to 3'): a small letter for the sugar, then the base; units joined by * are phosphorothioate-linked, units joined directly phosphodiester-linked; [ ] holds rarer units or linkages, { } end groups; capitals alone tell only the bases. e = 2'-O-(2-methoxyethyl) (MOE); k = constrained ethyl (cEt); [5mC] = 5-methylcytosine; d = 2'-deoxy (DNA); m = 2'-O-methyl
Note to self: use label 1 only for AST readings below 100 U/L; a reading exactly at 100 U/L still gets label 0.

Here are 2 substances together with their reported answers.
Criterion: AST strictly below 100 U/L. Is it met by 1200857 (kA*kG*kT*dG*dT*mA*dT*dG*dT*d[5mC]*dA*dG*dA*kA*kG*kA; antisense) [compound 1200857] ?
label 0

Does 1198615 (kT*kT*kA*dA*dA*dG*dT*dG*dT*dA*dT*dG*kT*k[5mC]*kA*eG) [compound 1198615] have AST strictly under 100 U/L?
label 1

New cases:
Lab note: AST threshold 100 U/L. Does this substance come in strictly under it? 1198312 (kG*k[5mC]*kA*d[5mC]*dT*dT*dT*dT*dA*d[5mC]*dA*dT*kT*eA*kG*eG) [compound 1198312]
label 0

Take the substance 1198612 (kA*kA*kG*dT*dG*dT*dA*dT*dG*dT*d[5mC]*dA*kG*kA*kA*eG) [compound 1198612] and say whether its AST is less than 100 U/L.
label 1

* * *

Tested on: Yap1 mRNA
Experiment: Antisense inhibition of human Yap1 in A-431 cells by cEt gapmers, single dose (Example 1, RTS4814)
Assay type: cell-based
Details: Table 2; A-431 cells, free uptake, 2,000 nM, approximately 48 hours, RTS4814; Yap1 mRNA relative to untreated control cells
Strand notation (5' to 3'): a small letter for the sugar, then the base; units joined by * are phosphorothioate-linked, units joined directly phosphodiester-linked; [ ] holds rarer units or linkages, { } end groups; capitals alone tell only the bases. k = constrained ethyl (cEt); [5mC] = 5-methylcytosine; d = 2'-deoxy (DNA)
Measure: YAP1 (% UTC)

Solved entries (count: 3):
Could you please provide reported YAP1 (% UTC) for 715626 (antisense kA*k[5mC]*k[5mC]*dT*dG*dA*d[5mC]*dA*dT*dT*dT*dT*dG*kG*kA*kG) [Compound 715626] ? Thanks!
64 % UTC

Give the reported YAP1 (% UTC) for this substance. 715452 (antisense kG*kT*k[5mC]*dA*dT*dT*dG*dT*dT*d[5mC]*dT*d[5mC]*dA*kA*kT*kT) [Compound 715452]
71 % UTC

Check the records and state YAP1 (% UTC) for 715515 (kT*kA*kT*dG*dA*dG*dT*d[5mC]*dA*dA*d[5mC]*d[5mC]*dT*kG*k[5mC]*kA; antisense) [Compound 715515]
94 % UTC

***
Give a short answer stating reported YAP1 (% UTC) for 715410 (kA*kT*k[5mC]*dA*dG*dT*dA*d[5mC]*dT*dG*dG*d[5mC]*d[5mC]*kT*kG*kT; antisense) [Compound 715410] .
61 % UTC

Identify YAP1 (% UTC) associated with the substance 715524 (kA*k[5mC]*kT*dT*dT*dA*dA*dG*dA*dA*dG*dT*dA*kT*k[5mC]*kT; antisense) [Compound 715524]
93 % UTC

Please look at this substance and report its YAP1 (% UTC): 715479 (antisense kA*kA*kA*d[5mC]*d[5mC]*dA*dT*dT*dA*dT*dT*dA*d[5mC]*kT*k[5mC]*k[5mC]) [Compound 715479]
38 % UTC

* * *

Test system: Yap1 mRNA
Assay: Antisense inhibition of human Yap1 in SNU-449 cells by modified oligonucleotides, single dose (Example 5, RTS36584)
Format: cell-based
Details: Table 52; Yap1 mRNA, modified oligonucleotides targeting SEQ ID NO: 1 and 2
Procedure: Modified oligonucleotides with additional chemistry modifications were designed to target a Yap1 nucleic acid and were tested for their effect on Yap1 mRNA level in SNU-449 cells. […] After a treatment period of approximately 48 hours, RNA was isolated from the cells and Yap1 mRNA levels were measured by quantitative real-time RTPCR. […] Yap1 mRNA levels were normalized to total RNA content, as measured by RIBOGREEN®. […]
Strand notation (5' to 3'): a small letter for the sugar, then the base; units joined by * are phosphorothioate-linked, units joined directly phosphodiester-linked; [ ] holds rarer units or linkages, { } end groups; capitals alone tell only the bases. k = constrained ethyl (cEt); [5mC] = 5-methylcytosine; d = 2'-deoxy (DNA); m = 2'-O-methyl
Items are presented alongside their recorded YAP1 (% UT).
Please append the unit to your numeric answer.

The following substances have reported results that may help.
Give the value of YAP1 (% UT) reported for the following: 1200828 (kA*kT*kA*dG*dT*mG*d[5mC]*dT*dT*dT*dG*dG*dA*kA*kG*kA; antisense) [Compound 1200828]
54 % UT

Give the reported YAP1 (% UT) for this substance. 1200817 (kA*kG*k[5mC]*dA*d[5mC]*mU*dT*dT*dT*dA*d[5mC]*dA*dT*kT*kA*kG; antisense) [Compound 1200817]
38 % UT

Others:
Find the measured YAP1 (% UT) of 1200807 (k[5mC]*kT*kG*dA*dG*mG*dT*dA*dT*dA*dA*d[5mC]*dT*kG*kG*kG; antisense) [Compound 1200807] and report it.
69 % UT

Please give the documented YAP1 (% UT) of 1200821 (kT*kT*kG*dG*dA*mA*dG*dA*dT*d[5mC]*dT*dG*dA*kA*kA*k[5mC]; antisense) [Compound 1200821]
59 % UT

Let me know recorded YAP1 (% UT) for 1200835 (k[5mC]*kA*kG*dA*dT*mU*dT*dA*dG*dG*dA*dT*dG*k[5mC]*kA*kT; antisense) [Compound 1200835] , thanks.
82 % UT

Please give the documented YAP1 (% UT) of 1200842 (k[5mC]*kT*k[5mC]*dT*dT*mA*dT*dA*dT*dG*dG*dT*dT*kT*kT*kG; antisense) [Compound 1200842]
168 % UT
